- tested-on: DC-SIGN CRD (Homo sapiens)
- Construct: His-tagged DC-SIGN CRD wild-type as well as the M270F mutant; His-tag
- Sequence (Q9NNX6 263-378 limits assumed): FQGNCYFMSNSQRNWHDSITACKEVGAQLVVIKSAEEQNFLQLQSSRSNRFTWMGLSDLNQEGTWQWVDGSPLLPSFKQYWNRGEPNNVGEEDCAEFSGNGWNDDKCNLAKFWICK
- run-description: 15N HSQC NMR titration
- experimental-context: 10 mM CaCl2, MES pH 6.0
quantity: Kd (µM)
Supply the numeric figure in µM, leaving out any unit text.

In plain terms, NC[C@H]1O[C@H](Oc2ccc(-c3ccc(C(=O)O)cc3)cc2C(F)(F)F)[C@@H](O)[C@@H](O)[C@@H]1O has a documented Kd of 460

###

- tested-on: Langerin CRD (Homo sapiens, UniProt Q9UJ71)
- Construct: Langerin carbohydrate recognition domains (CRDs) were expressed insolubly in; made in house; host or cells: E. coli BL21* (DE3)
- Sequence (Q9UJ71 202-320 limits assumed): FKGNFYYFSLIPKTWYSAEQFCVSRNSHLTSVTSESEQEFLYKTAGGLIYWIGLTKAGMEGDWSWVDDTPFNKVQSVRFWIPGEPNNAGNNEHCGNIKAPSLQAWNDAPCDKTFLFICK
- run-description: 15N HSQC NMR titration, KD determination
- Assay type: binding
- experimental-context: 10% DMSO
quantity: pKd
Keep it numeric: pKd is minus log10 of the concentration in mol/L.

Sample answers from the record:
1. O=C(O)c1ccc(-c2ccc(O[C@H]3O[C@H](CO)[C@@H](O)[C@H](O)[C@@H]3O)c(C(F)(F)F)c2)cc1 [compound 9]: 3.30
2. COC1OC(CO)C(O)C(O)C1O (stereo not drawn) [compound 46, reference compound]: 2.15

Then there is this molecule:
Langerin CRD (Homo sapiens, UniProt Q9UJ71) data for CC(=O)NCCS(=O)(=O)NC[C@H]1O[C@H](Oc2ccc(-c3ccc(C(=O)O)cc3)cc2C(F)(F)F)[C@@H](O)[C@@H](O)[C@@H]1O [compound 43] ; its pKd: 3.34
